- testedSystem: p110α (Homo sapiens, UniProt P42336, E545K)
- Sequence (P42336 whole entry E545K): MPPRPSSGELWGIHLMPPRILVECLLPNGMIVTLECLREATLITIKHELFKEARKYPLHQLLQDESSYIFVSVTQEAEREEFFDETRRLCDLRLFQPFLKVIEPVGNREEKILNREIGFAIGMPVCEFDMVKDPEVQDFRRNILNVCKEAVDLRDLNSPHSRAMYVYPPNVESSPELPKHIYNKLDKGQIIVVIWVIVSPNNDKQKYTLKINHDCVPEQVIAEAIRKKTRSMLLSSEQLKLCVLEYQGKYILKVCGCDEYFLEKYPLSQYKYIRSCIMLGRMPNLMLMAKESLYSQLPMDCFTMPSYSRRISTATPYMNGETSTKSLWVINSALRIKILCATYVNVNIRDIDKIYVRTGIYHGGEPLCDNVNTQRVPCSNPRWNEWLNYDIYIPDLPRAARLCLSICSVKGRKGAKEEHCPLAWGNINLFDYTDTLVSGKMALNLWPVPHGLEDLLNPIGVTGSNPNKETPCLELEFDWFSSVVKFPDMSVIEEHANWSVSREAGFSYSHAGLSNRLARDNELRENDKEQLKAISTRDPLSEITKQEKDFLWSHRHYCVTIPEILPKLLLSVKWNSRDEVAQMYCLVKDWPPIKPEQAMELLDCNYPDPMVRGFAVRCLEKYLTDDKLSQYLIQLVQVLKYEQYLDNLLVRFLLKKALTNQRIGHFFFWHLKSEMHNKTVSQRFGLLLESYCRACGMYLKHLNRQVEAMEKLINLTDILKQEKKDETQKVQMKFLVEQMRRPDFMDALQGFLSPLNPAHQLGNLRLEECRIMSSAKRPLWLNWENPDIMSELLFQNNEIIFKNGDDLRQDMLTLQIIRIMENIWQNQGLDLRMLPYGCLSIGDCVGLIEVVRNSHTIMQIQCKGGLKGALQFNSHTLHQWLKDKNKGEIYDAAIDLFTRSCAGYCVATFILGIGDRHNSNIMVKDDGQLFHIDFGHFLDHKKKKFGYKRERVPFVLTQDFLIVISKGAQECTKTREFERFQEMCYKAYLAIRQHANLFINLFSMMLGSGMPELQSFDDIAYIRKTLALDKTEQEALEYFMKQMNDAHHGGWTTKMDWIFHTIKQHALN
- Sequence (P27986 whole entry partner): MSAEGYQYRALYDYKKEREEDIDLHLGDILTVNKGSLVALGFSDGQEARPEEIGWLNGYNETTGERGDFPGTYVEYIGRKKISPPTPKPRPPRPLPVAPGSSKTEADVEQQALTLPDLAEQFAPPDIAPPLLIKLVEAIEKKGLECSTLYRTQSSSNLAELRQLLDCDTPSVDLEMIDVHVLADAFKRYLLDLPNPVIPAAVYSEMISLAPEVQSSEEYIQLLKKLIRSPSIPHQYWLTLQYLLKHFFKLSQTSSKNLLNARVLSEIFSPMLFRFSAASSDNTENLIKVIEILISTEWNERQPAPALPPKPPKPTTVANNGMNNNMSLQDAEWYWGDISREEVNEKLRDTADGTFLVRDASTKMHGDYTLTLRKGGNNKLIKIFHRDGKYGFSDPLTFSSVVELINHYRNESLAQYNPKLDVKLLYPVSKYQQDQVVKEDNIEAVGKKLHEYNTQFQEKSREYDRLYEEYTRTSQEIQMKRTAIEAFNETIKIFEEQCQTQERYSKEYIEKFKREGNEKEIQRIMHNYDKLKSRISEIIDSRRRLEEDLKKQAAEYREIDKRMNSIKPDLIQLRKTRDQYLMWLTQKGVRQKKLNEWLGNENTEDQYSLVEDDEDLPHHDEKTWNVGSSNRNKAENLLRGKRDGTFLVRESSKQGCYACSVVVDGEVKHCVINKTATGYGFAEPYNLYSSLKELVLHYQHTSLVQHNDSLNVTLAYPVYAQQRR
- assayOverview: Western blot of p110α degradation in MCF7 cells
- Type: cell-based
- condition: pretreatment before WJ112-14
measuredProperty: rescue of p110α from WJ112-14 degradation by pretreatment

[[record]]
smiles = "NS(=O)(=O)OC[C@@H]1C[C@@H](n2ccc3c(N[C@H]4CCc5ccccc54)ncnc32)C[C@@H]1O"
reportedresult = "full rescue of p110α"

[[record]]
smiles = "CC(C)C[C@H](NC(=O)[C@H](Cc1ccccc1)NC(=O)c1cnccn1)B(O)O"
reportedresult = "full rescue of p110α"

[[record]]
smiles = "NS(=O)(=O)OC[C@H]1C[C@@H](Nc2ccnc3cc(-c4cccc(SC(F)(F)F)c4)nn23)[C@H](O)[C@@H]1O"
reportedresult = "full rescue of p110α"


Measured values drawn from paper PMC10763047 for this set.
